Listed here are compounds together with their documented solubility kinetic.
Conditions: buffer; pH 7.4; 200.0 µM

{"compound": "O=C(CN1C(=O)c2ccccc2C1=O)Nc1cccc(O)c1", "solubility kinetic": "37 µg/mL"}
{"compound": "Cc1ccc(C)c(S(=O)(=O)NCCCc2ccccc2)c1", "solubility kinetic": "14.2 µg/mL"}
{"compound": "C=CCc1cccc(CNc2ccc(Br)cc2)c1O", "solubility kinetic": "1.4 µg/mL"}
{"compound": "COc1ccc(/C=C2\\N=C(C)OC2=O)cc1OC", "solubility kinetic": "36.9 µg/mL"}
{"compound": "CCc1ccc(OCC(=O)OCC(=O)NC2CCCC(C)C2C)cc1 (configuration not stated)", "solubility kinetic": "9.2 µg/mL"}
{"compound": "CCCCN1C(=O)C(C)=C(C)C1OCCc1ccc(OC)c(OC)c1 (configuration not stated)", "solubility kinetic": "50.5 µg/mL"}
{"compound": "Cc1[nH]c2ccccc2c1C(=O)CSC(=S)N1CCN(C)CC1", "solubility kinetic": "2.4 µg/mL"}
{"compound": "CN(C)C(=S)Nc1ccc2c(c1)OCCO2", "solubility kinetic": "> 35.7 µg/mL"}
{"compound": "CCc1cccc(C)c1NC(=O)CCOc1ccccc1", "solubility kinetic": "10.9 µg/mL"}
{"compound": "C/C(=N/O)c1ccc2ccc3ccccc3c2c1", "solubility kinetic": "0.6 µg/mL"}
{"compound": "Cc1ccc2nc(Cl)c(/C=C/C(=O)c3ccco3)cc2c1", "solubility kinetic": "15.4 µg/mL"}
{"compound": "Cc1ccc(C(C)C)c(OC/C(O)=C(\\C#N)c2nc3ccccc3[nH]2)c1", "solubility kinetic": "< 0.2 µg/mL"}

---

Details: buffer; pH 7.4; 200.0 µM
Some molecules, each annotated with its measured solubility kinetic.
observation type: solubility kinetic (µg/mL)

{"molecule": "CCOc1ccccc1NC(=O)c1cc(=O)[nH]c2ccc(S(=O)(=O)N3CCOCC3)cc12", "observation type": "solubility kinetic", "measure unit": "µg/mL", "lt gt eq": "=", "data value": 21.4}
{"molecule": "O=C(c1cccnc1)N1N=C2CCCCCC2C1(O)C(F)(F)F (centres undefined)", "observation type": "solubility kinetic", "measure unit": "µg/mL", "lt gt eq": ">", "data value": 49.1}
{"molecule": "NS(=O)(=O)c1ccc(CCNC(=O)Cc2ccc(Cl)cc2)cc1", "observation type": "solubility kinetic", "measure unit": "µg/mL", "lt gt eq": ">", "data value": 52.9}
{"molecule": "NC12NC(=O)C3(O)C4C5CC(C6C5C3C61)C42 (centres undefined)", "observation type": "solubility kinetic", "measure unit": "µg/mL", "lt gt eq": ">", "data value": 32.7}
{"molecule": "COc1ccc(NC(=O)Nc2ccncc2)c(OC)c1", "observation type": "solubility kinetic", "measure unit": "µg/mL", "lt gt eq": ">", "data value": 41}
{"molecule": "COc1ccc(C2C(C#N)=C(N)Oc3c2oc(CO)cc3=O)cc1 (centres undefined)", "observation type": "solubility kinetic", "measure unit": "µg/mL", "lt gt eq": ">", "data value": 48.9}
{"molecule": "CCCCn1c(N)c(N(CC)C(=O)c2cccc(F)c2)c(=O)[nH]c1=O", "observation type": "solubility kinetic", "measure unit": "µg/mL", "lt gt eq": "=", "data value": 52.1}
{"molecule": "CC(C)(C)OC(=O)NCCc1n[nH]c(=S)o1", "observation type": "solubility kinetic", "measure unit": "µg/mL", "lt gt eq": ">", "data value": 36.8}
{"molecule": "Cc1ccc(N(Cc2ccccc2)C(=O)c2cccc(F)c2)cc1", "observation type": "solubility kinetic", "measure unit": "µg/mL", "lt gt eq": "=", "data value": 11.1}
{"molecule": "Cc1ccccc1Oc1ccccc1N", "observation type": "solubility kinetic", "measure unit": "µg/mL", "lt gt eq": "=", "data value": 3.9}
{"molecule": "CCc1ccccc1NC(=S)N(CCN(C)C)C(C)c1ccco1 (centres undefined)", "observation type": "solubility kinetic", "measure unit": "µg/mL", "lt gt eq": "=", "data value": 50.5}
{"molecule": "COc1ccc(/C=C/C(=O)N2CCNC(=O)C2)c(OC)c1", "observation type": "solubility kinetic", "measure unit": "µg/mL", "lt gt eq": "=", "data value": 41.3}
{"molecule": "CCOc1ccc(CSC(=N)N)cc1Cl.Cl", "observation type": "solubility kinetic", "measure unit": "µg/mL", "lt gt eq": ">", "data value": 42.2}
{"molecule": "C/C(=C\\C(=O)Nc1cscc1C)C(=O)O", "observation type": "solubility kinetic", "measure unit": "µg/mL", "lt gt eq": "=", "data value": 28.2}
{"molecule": "CC1CCCC(NC(=O)COC(=O)/C=C/c2ccc(F)cc2)C1C (centres undefined)", "observation type": "solubility kinetic", "measure unit": "µg/mL", "lt gt eq": "=", "data value": 3.3}
{"molecule": "O=C(CSc1ccc([N+](=O)[O-])cc1)OCC(=O)N1CCCC1=O", "observation type": "solubility kinetic", "measure unit": "µg/mL", "lt gt eq": "=", "data value": 50.3}
{"molecule": "CCCCN(C(=S)SC)C1CCS(=O)(=O)C1 (centres undefined)", "observation type": "solubility kinetic", "measure unit": "µg/mL", "lt gt eq": "=", "data value": 36.9}
{"molecule": "O=S(=O)(Nc1ccc2c(c1)OCCO2)c1c(F)cccc1F", "observation type": "solubility kinetic", "measure unit": "µg/mL", "lt gt eq": "=", "data value": 47.8}
{"molecule": "COCc1cc(=O)[nH]c(N2CCN(c3ccccc3OC)CC2)n1", "observation type": "solubility kinetic", "measure unit": "µg/mL", "lt gt eq": "=", "data value": 46.3}
{"molecule": "Fc1cccc(Cl)c1/C=C/c1cnc2ccccc2n1", "observation type": "solubility kinetic", "measure unit": "µg/mL", "lt gt eq": "<", "data value": 0.3}
{"molecule": "N#Cc1ccccc1OCC(=O)NCC(c1cccs1)N1CCOCC1 (centres undefined)", "observation type": "solubility kinetic", "measure unit": "µg/mL", "lt gt eq": ">", "data value": 55.7}
{"molecule": "CCCCCCCOc1ccc(C2CC(=O)N(C)C2=O)cc1 (centres undefined)", "observation type": "solubility kinetic", "measure unit": "µg/mL", "lt gt eq": "=", "data value": 3.1}
{"molecule": "NC(=O)c1ccc(S(=O)(=O)N2CCSCC2)cc1", "observation type": "solubility kinetic", "measure unit": "µg/mL", "lt gt eq": "=", "data value": 37.9}
{"molecule": "Clc1ccc(N2CCN(Cc3ccc(Br)o3)CC2)cc1", "observation type": "solubility kinetic", "measure unit": "µg/mL", "lt gt eq": "=", "data value": 1.4}
{"molecule": "Cc1ccc(C(=O)NC(C)c2ccc3c(c2)OCO3)s1 (centres undefined)", "observation type": "solubility kinetic", "measure unit": "µg/mL", "lt gt eq": ">", "data value": 43.4}
{"molecule": "CC(C)=CC(=O)OCC(=O)Nc1ccc(Cl)cc1", "observation type": "solubility kinetic", "measure unit": "µg/mL", "lt gt eq": "=", "data value": 36.3}
{"molecule": "CCCNC(=O)N1CCN(C(c2ccccc2)c2ccccc2)CC1", "observation type": "solubility kinetic", "measure unit": "µg/mL", "lt gt eq": "=", "data value": 3.9}
{"molecule": "COc1ccc(S(=O)(=O)N(C)C)cc1NC(=O)COC(=O)C1CC1", "observation type": "solubility kinetic", "measure unit": "µg/mL", "lt gt eq": ">", "data value": 53.5}
{"molecule": "CCOC(=O)C1CCN(C(=O)COC(=O)C23CC4CC(CC(C4)C2)C3)CC1", "observation type": "solubility kinetic", "measure unit": "µg/mL", "lt gt eq": "=", "data value": 50.7}
{"molecule": "Cc1cc(/C=C2\\NC(=S)NC2=O)c(C)n1-c1cccnc1", "observation type": "solubility kinetic", "measure unit": "µg/mL", "lt gt eq": "=", "data value": 4.8}
{"molecule": "CC(CN1CCOCC1)OC(=O)c1ccc(Cl)cc1Cl.Cl (centres undefined)", "observation type": "solubility kinetic", "measure unit": "µg/mL", "lt gt eq": "=", "data value": 48.9}
{"molecule": "CCC(=O)c1ccc(OCC(=O)N2CCN(CC(=O)Nc3ccc(C)cc3)CC2)cc1", "observation type": "solubility kinetic", "measure unit": "µg/mL", "lt gt eq": ">", "data value": 63.5}
{"molecule": "COc1ccccc1-c1nc(=S)c(C(C)=O)c(C)[nH]1", "observation type": "solubility kinetic", "measure unit": "µg/mL", "lt gt eq": ">", "data value": 41.2}
{"molecule": "O=C(NCCc1c[nH]c2ccccc12)/C(=C/c1cccnc1)NC(=O)c1ccco1", "observation type": "solubility kinetic", "measure unit": "µg/mL", "lt gt eq": ">", "data value": 60.1}
{"molecule": "O=C1CSC(c2ccccc2)N1c1ccc([N+](=O)[O-])cc1 (centres undefined)", "observation type": "solubility kinetic", "measure unit": "µg/mL", "lt gt eq": "=", "data value": 33.4}
{"molecule": "CC(=O)c1ccc(N2CCN(C(=O)c3cccs3)C(C)C2)c(F)c1 (centres undefined)", "observation type": "solubility kinetic", "measure unit": "µg/mL", "lt gt eq": ">", "data value": 52}
{"molecule": "Nc1c(N(CCO)C(=O)C2CCCC2)c(=O)[nH]c(=O)n1Cc1ccccc1", "observation type": "solubility kinetic", "measure unit": "µg/mL", "lt gt eq": ">", "data value": 55.9}
{"molecule": "Cc1ccc(Nc2nc(N)c3ccccc3n2)cc1Cl.Cl", "observation type": "solubility kinetic", "measure unit": "µg/mL", "lt gt eq": "=", "data value": 22.1}
{"molecule": "COc1cccc(C(=O)NCCS(=O)(=O)N2CCCC2)c1", "observation type": "solubility kinetic", "measure unit": "µg/mL", "lt gt eq": ">", "data value": 46.9}
{"molecule": "CC1CC(C)CN(C(=O)CN2C(=O)NC3(CCCCCC3)C2=O)C1 (centres undefined)", "observation type": "solubility kinetic", "measure unit": "µg/mL", "lt gt eq": ">", "data value": 50.3}
{"molecule": "O=C1CCCC(O)=C1C=NCc1ccccc1", "observation type": "solubility kinetic", "measure unit": "µg/mL", "lt gt eq": ">", "data value": 34.4}
{"molecule": "CCOC(=O)CSc1ccc2ccccc2n1", "observation type": "solubility kinetic", "measure unit": "µg/mL", "lt gt eq": "=", "data value": 19.5}
{"molecule": "CN(Cc1ccccc1)C(=O)COC(=O)COc1ccc(C#N)cc1", "observation type": "solubility kinetic", "measure unit": "µg/mL", "lt gt eq": ">", "data value": 50.8}
{"molecule": "Cc1c(C)n(Cc2ccccc2)c2ncnc(Cl)c12", "observation type": "solubility kinetic", "measure unit": "µg/mL", "lt gt eq": "=", "data value": 0.3}
{"molecule": "C(=N\\Nc1nc2ccccc2[nH]1)/C1CCCCC1", "observation type": "solubility kinetic", "measure unit": "µg/mL", "lt gt eq": ">", "data value": 36.3}
{"molecule": "c1ccc(N2CCN(C3CC4CCC3C4)CC2)cc1 (centres undefined)", "observation type": "solubility kinetic", "measure unit": "µg/mL", "lt gt eq": "=", "data value": 27.1}
{"molecule": "COc1cc(NC(=O)CCN2CCOCC2)cc(OC)c1", "observation type": "solubility kinetic", "measure unit": "µg/mL", "lt gt eq": ">", "data value": 44.2}
{"molecule": "CN1c2ccccc2Sc2cc(N)ccc21", "observation type": "solubility kinetic", "measure unit": "µg/mL", "lt gt eq": "=", "data value": 25.6}
{"molecule": "c1ccc(-c2csc(Nc3cccnc3)n2)cc1", "observation type": "solubility kinetic", "measure unit": "µg/mL", "lt gt eq": "=", "data value": 2.2}

// data source = PubChem BioAssay AID1996
